# tested on: T1, murine GPC3-his protein (murine, UniProt Q8CFZ4 25-558, limits assumed)
# T1 construct: Bought protein; also called mouse GPC3 protein; murine GPC3 protein; not shown: His tag
# T1 sequence (Q8CFZ4 25-558 limits assumed): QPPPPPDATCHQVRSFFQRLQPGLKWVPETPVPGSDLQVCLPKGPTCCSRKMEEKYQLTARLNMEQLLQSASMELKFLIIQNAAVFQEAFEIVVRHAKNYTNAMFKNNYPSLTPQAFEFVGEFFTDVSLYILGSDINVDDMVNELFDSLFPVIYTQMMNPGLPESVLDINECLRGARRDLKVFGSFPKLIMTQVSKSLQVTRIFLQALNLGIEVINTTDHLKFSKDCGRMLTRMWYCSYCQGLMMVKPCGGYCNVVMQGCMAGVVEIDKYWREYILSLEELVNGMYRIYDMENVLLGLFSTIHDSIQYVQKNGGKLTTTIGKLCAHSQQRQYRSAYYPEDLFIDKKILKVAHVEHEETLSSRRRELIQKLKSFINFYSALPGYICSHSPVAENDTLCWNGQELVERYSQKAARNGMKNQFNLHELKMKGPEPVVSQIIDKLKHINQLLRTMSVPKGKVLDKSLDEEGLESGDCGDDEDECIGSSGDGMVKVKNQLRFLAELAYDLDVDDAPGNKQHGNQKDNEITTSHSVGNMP
# method: ELISA, murine GPC3-his coated; antibody 13.33 nM
measurement name: OD450 nm

For the binder hAb001H1L1 (antibody, human IgG1, V domains shown, Humanized F2.169.2, H1+L1) VH: EVQLVESGGGLVQPGGSLRLSCAASGFSFNTNAMNWVRQAPGKGLEWVGRIRSKSNNYATYYADSVKDRFTISRDDSKNSLYLQMNSLKTEDTAVYYCVRDGYYVLFAYWGQGTLVTVSS VL: DIVMTQTPLSLPVTPGEPASISCRFSQSIVNSNGNTYLEWFLQKPGQSPQLLIYKVSNRFSGVPDRFSGSGSGTDFTLKISRVEAEDVGVYYCFQGSHVPFTFGQGTKLEIK , give its reported OD450 nm.
2.82
